Cited source: patent US20230078173A1

molecular target: T1, recombinant human PD-L1-His (human, UniProt Q9NZQ7 19-238); assay: BLI (Octet RED96), antibody captured on AHC biosensor, PD-L1-His in solution, 1:1 model;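 note: rates obtained by 1:1 Langmuir fitting of the binding response, using a 2.5 min association phase then a 5 min dissociation phase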
T1 construct: Analyte of the BLI assay; also called hPD-L1
T1 sequence (Q9NZQ7 19-238): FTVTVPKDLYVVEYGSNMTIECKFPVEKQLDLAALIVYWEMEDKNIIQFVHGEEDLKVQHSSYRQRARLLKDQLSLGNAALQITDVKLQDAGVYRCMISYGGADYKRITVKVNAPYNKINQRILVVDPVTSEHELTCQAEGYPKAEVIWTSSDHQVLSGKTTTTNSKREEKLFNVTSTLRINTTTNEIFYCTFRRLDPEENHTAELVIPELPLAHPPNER
readout: koff (s⁻¹)
Lab book: enter the figure in s⁻¹, no units written.

# binder, koff, s⁻¹
measured = [
    ("PHS102.YP7G (antibody, human IgG1, kappa, N297A, V domains shown, full-length human IgG1-N297A / kappa) VH: EVQLVESGGGLVQPGGSLRLSCAASGFTIDDTYIHWVRQAPGKGLEWVARIDPANGMTRYADSVKGRFMISADTSKNTAYLQMNSLRAEDTAVYYCARAFSWFPDYWGQGTLVTVSS VL: DIQMTQSPSSLSASVGDRVTITCRAGQDVYKAVAWYQQKPGKAPKLLIYWSTNLYSGVPSRFSGSGSGTDFTLTISSLQPEDFATYYCQQGSTWPLTFGQGTKVEIKR", 0.00136),
    ("PHS102.YT6D (antibody, human IgG1, kappa, N297A, V domains shown) VH: EVQLVESGGGLVQPGGSLRLSCAASGFTISDGYIHWVRQAPGKGLEWVARIDPLTGRTMYADSVKGRFTISADTSKNTAYLQMNSLRAEDTAVYYCARAFSWWPDYWGQGTLVTVSS VL: DIQMTQSPSSLSASVGDRVTITCRAGQDVYKAVAWYQQKPGKAPKLLIYWSTNLYSGVPSRFSGSGSGTDFTLTISSLQPEDFATYYCQQIMSPPPTFGQGTKVEIKR", 0.000713),
]

Now let's try a different one.
Kindly note the recorded koff for PHS102.YT10H (antibody, human IgG1, kappa, N297A, V domains shown, full-length human IgG1-N297A / kappa) VH: EVQLVESGGGLVQPGGSLRLSCAASGFTISDAYIHWVRQAPGKGLEWVARIEPLSGRTDYADSVKGRFTISADTSKNTAYLQMNSLRAEDTAVYYCARAFSWFMDYWGQGTLVTVSS VL: DIQMTQSPSSLSASVGDRVTITCRAGQDVYKAVAWYQQKPGKAPKLLIYWSTNLYSGVPSRFSGSGSGTDFTLMISSLQPEDFATYYCQQHDKTPTTFGQGTKVEIKR , which is 0.00067
